# pIC50 values compiled below
Biological target: CBL-B (Homo sapiens)
Construct: GST
Sequence (Q13191 whole entry): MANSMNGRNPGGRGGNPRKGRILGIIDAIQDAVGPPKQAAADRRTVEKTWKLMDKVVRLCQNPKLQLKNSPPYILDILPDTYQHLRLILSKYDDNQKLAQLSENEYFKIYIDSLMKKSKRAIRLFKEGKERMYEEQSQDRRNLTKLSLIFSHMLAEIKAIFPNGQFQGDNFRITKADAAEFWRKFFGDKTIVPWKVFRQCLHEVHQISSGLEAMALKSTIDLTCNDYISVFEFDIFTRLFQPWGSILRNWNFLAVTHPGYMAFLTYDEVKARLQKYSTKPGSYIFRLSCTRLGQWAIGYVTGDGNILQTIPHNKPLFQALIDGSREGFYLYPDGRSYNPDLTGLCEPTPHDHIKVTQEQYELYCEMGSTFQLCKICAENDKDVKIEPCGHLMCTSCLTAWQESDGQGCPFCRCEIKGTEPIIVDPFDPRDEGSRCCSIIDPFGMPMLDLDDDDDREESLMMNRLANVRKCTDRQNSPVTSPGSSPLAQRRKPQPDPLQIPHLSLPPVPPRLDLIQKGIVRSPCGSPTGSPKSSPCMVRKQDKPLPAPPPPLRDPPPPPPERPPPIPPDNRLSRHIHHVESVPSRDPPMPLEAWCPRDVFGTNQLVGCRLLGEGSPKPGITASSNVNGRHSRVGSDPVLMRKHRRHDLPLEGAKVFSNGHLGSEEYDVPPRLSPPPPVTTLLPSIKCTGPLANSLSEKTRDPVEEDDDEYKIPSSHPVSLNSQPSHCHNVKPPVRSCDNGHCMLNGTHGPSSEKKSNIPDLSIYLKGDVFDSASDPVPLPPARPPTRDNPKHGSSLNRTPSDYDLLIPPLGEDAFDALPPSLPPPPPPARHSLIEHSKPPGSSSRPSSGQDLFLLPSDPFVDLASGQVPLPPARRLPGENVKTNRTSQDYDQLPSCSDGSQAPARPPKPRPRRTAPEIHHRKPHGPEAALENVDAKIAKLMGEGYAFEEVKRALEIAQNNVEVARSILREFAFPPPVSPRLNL
Experiment: CBL-B TR-FRET IC50 screening (E1/E2 ubiquitination, Biotin-Ubiquitin, Anti GST-Tb donor / Streptavidin-d2 acceptor)
Type: biochemical
Settings: CBL-B 10 nM final; 11-point titration from 100 uM; binned A-F; read-out: CBL-B TR-FRET activity IC50
pIC50: −log10 of the molar value.

Reference set, count: 8
[2H]C([2H])([2H])n1cnnc1CC1(c2cccc(-n3cc4c(C(F)(F)F)cc(CN5CCC[C@H](C)C5)cn4c3=O)c2)COC1 = > 7.00
Cn1cnnc1[C@]1(c2cccc(-n3cc4c(C(F)(F)F)cc(CN5CC[C@H](F)C5)cn4c3=O)c2)C[C@@H](C)C1 = > 7.00
O=c1n(-c2cccc([C@H](c3nncs3)C3CCC3)c2)cc2c(C(F)(F)F)cc(CN3CCC4(CC4)C3)cn12 = 5.52 to 6.00
COC1(C)CN(Cc2cc(C(F)(F)F)c3cn(-c4cccc([C@H](c5nncn5C)C5CCC5)c4)c(=O)n3c2)C1 = > 7.00
C[C@H]1CCCN(Cc2cc(C(F)(F)F)c3cn(-c4cccc(C5(c6nncn6C)CC6(CC6)C5)c4)c(=O)n3c2)C1 = 6.52 to 7.00
CN1CCN(Cc2cc(C(F)(F)F)c3cn(-c4cccc([C@@H](c5nncn5C)C5CCC5)c4)c(=O)n3c2)CC1=O = 6.00 to 6.52
Cn1cnnc1[C@]1(c2cccc(-n3cc4c(C(F)(F)F)cc(CN5CC6(CC6)C5)cn4c3=O)c2)C[C@@H](C)C1 = > 7.00
C[C@H]1CCCN(Cc2cc(C(F)(F)F)c3cn(-c4cccc([C@H](c5nc(C#N)cs5)C5CCC5)c4)c(=O)n3c2)C1 (single isomer, unassigned) = < 5.00

Query: Look up pIC50 for this compound: CC(=O)N1CCN(Cc2cc(C(F)(F)F)c3cn(-c4cccc([C@@H](c5nncn5C)C5CCC5)c4)c(=O)n3c2)CC1
Response: > 7.00

Query: # query: pIC50 of entry COC1CCN(Cc2cc(C(F)(F)F)c3cn(-c4cccc([C@H](c5nncn5C)C5CCC5)c4)c(=O)n3c2)CC1
Response: > 7.00

Query: Could you share which pIC50 value was measured for Cc1conc1CC1(c2cccc(-n3cc4c(C(F)(F)F)cc(CN5CCC[C@H](C)C5)cn4c3=O)c2)COC1 ?
Response: 6.52 to 7.00

Query: Find the recorded pIC50 belonging to COc1cc(-n2cc3c(C(F)(F)F)cc(CN4CCC5(CC5)C4)cn3c2=O)cc(C2(Cc3nncn3C)COC2)c1 and report it.
Response: > 7.00

Query: Can you look up the measured pIC50 of Cc1conc1[C@H](c1cccc(-n2cc3c(C(F)(F)F)cc(CN4CCC[C@H](C)C4)cn3c2=O)c1)C1CCC1 (single isomer, unassigned) for me?
Response: 6.00 to 6.52

Hello, the source for this data is patent US20240228482A1, in case you need it.
